# targetSystem: T1, Mcl-1, biotinylated (C-terminal avi-6His) (human, UniProt Q07820 1-350, biotin (enzymatic, BirA))
# T1 chain: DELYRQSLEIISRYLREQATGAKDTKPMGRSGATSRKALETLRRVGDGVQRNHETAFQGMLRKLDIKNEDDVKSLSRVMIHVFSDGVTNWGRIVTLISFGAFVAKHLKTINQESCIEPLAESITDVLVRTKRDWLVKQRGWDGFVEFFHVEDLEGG
# methodDescription: BLI
observable: pKd
Answer as the number alone; pKd is minus log10 of concentration in mol/L.

Challenge: Data request, read-out pKd, for W-CDP03 (Bcl-w-targeting computationally designed protein) (designed binder) ADPKKVFDEAKDRAENNVRRLKQKLEELYKEARKKDLTQEEREKLKEKYKTAMAAAALAAIGDAFNALLKARKLHKNGQVNEQQLEELARRLQELAKEAFQKAKDYANEFEYKLEY
Response given: 7.24

Challenge: Field entry: B-CDP01 (Bcl-B-targeting computationally designed protein) (designed binder) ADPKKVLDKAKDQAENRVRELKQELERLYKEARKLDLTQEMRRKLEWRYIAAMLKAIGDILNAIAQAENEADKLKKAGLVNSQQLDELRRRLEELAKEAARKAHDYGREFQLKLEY
Response given: 9.34
